Assay: Solubility of compound in pH 6.5 phosphate buffer by nephelometry
Type: physicochemical
assay-metric: solubility kinetic (mg/mL)
Please give a number only; it is taken to be in mg/mL.

Reported solubility kinetic, compound "O=S(=O)(c1ccc(F)cc1)N1CCc2[nH]c3ncccc3c2C1" : ____
0.0125

Field entry: "O=C(c1ccc2[nH]c3c(c2c1)CN(S(=O)(=O)c1ccc(F)cc1)CC3)N1CCOCC1"
0.0063

Field entry: "O=S(=O)(c1cnc[nH]1)N1CCc2[nH]c3ccccc3c2C1"
0.05

====

Assay: Lipophilicity, log D of compound at pH 7.4 by gradient HPLC analysis
Format: physicochemical
Conditions: buffer
Here the recorded logD is given for each entry.
Could you keep your reply to the number by itself?

Reported logD, compound "O=S(=O)(c1ccc(F)cc1)N1CCc2[nH]c3ccc(F)cc3c2C1" : ____
4.1

Field entry: "O=C(c1ccc2[nH]c3c(c2c1)CN(S(=O)(=O)c1ccc(F)cc1)CC3)N1CCOCC1"
3

Field entry: "Cc1ccc(S(=O)(=O)N2CCc3[nH]c4ccccc4c3C2)cc1"
4.1
